Data provenance: paper PMC7819943

# STUDY TARGET: OsWRKY34 (Oryza sativa, UniProt Q0JBA9 1-250)
# Sequence (Q0JBA9 entry or part of it): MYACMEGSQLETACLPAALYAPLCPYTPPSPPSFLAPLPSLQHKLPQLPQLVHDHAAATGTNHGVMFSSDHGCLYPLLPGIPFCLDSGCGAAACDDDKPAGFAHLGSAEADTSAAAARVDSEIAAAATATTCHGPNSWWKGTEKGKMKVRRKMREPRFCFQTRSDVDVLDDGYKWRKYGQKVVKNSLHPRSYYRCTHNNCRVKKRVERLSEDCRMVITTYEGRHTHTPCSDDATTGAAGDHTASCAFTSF
# EXPERIMENTAL DETAILS: protein-binding microarray (RPBM); PBS, 2% BSA, 51.3 ng/ul salmon testes DNA, 50 uM zinc acetate, 200 nM TF, 25 C, 1 h; high values mean tight binding
# STATED CONDITIONS: protein: recombinant; tags: N-terminal polyhistidine and DsRed monomer fusion (pET32a); label: CyDye5-dUTP incorporated in the synthesized complementary strand; 3' TTTTT single-stranded linker to array surface; dsDNA, one strand shown
Over roughly 68,000 sequences, “fluorescence intensity (a.u.)” has its median near 9,100; the highest 2% begin near 16,000. What follows is part of a selection rich in the highest values, with near analogues and random picks from the rest.
RECORDED ENDPOINT: binding signal

Record request: binding signal value, item CGTCACTTTTTTTTCTCCCCTATTTCTTTTCTCCTTTTCTCGGAGTCACCTAGTGCAG
10900 fluorescence intensity (a.u.)

* * *

# STUDY TARGET: OsWRKY34 (Oryza sativa, UniProt Q0JBA9 1-250)
# EXPERIMENTAL DETAILS: protein-binding microarray (RPBM); PBS, 2% BSA, 51.3 ng/ul salmon testes DNA, 50 uM zinc acetate, 200 nM TF, 25 C, 1 h; high values mean tight binding
# STATED CONDITIONS: protein: recombinant; tags: N-terminal polyhistidine and DsRed monomer fusion (pET32a); label: CyDye5-dUTP incorporated in the synthesized complementary strand; 3' TTTTT single-stranded linker to array surface; dsDNA, one strand shown
In all, about 68,000 sequences were measured (“fluorescence intensity (a.u.)”: median about 9,100, highest 2% from about 16,000 on). The full list was thinned out, with the highest values kept by preference.
RECORDED ENDPOINT: binding signal

In [3]: df
Out[3]:
                           residue_sequence                       value_reported
0  CCATCTCCTTCAGCCTTCGCTTCATCTGGTCGAGCTCCTGCGGAGTCACCTAGTGCAG   9080 fluorescence intensity (a.u.)
1  GGTGGTGTTGTTGGTGGTGCAGTTCTTGGAGTCACATGGTCGGAGTCACCTAGTGCAG  10300 fluorescence intensity (a.u.)
2  ACTGAGTATTATTATATCCTAACTAAGTTATCGTACATTCCGGAGTCACCTAGTGCAG   8060 fluorescence intensity (a.u.)

Record request: binding signal value, item TTGACCTTTTTAAAACATTTTTGACCGTTCGTCTTATTCACGGAGTCACCTAGTGCAG
10600 fluorescence intensity (a.u.)

Record request: binding signal value, item ACTTTTTAAATATGTTTGACCGTTCGTCTTATTCAAAAACCGGAGTCACCTAGTGCAG
9990 fluorescence intensity (a.u.)

Record request: binding signal value, item CTCTTCATTTTTTTAATAGATAGCGTCGTTGACTTTTGAACGGAGTCACCTAGTGCAG
14800 fluorescence intensity (a.u.)

Record request: binding signal value, item CCTCTCACTGCTAGTGCCCCACACCGTTCTTCGCTGCCCACGGAGTCACCTAGTGCAG
11800 fluorescence intensity (a.u.)

Record request: binding signal value, item ACTCTCTCCGTCCTTAAATATTTGACGCCGTTGACTTTTTCGGAGTCACCTAGTGCAG
30600 fluorescence intensity (a.u.)

Record request: binding signal value, item GGCCCATCTGACCAAGCCCAGCTCGCGTCGTCGTGTTGATCGGAGTCACCTAGTGCAG
8930 fluorescence intensity (a.u.)
